system tested: GLP-1 Receptor (Homo sapiens)
method summary: GLP-1R agonist cAMP stimulation assay (HEK293/GLP1R/CRE-LUC cells, cAMP dynamic 2 Kit)
measurement conditions: HEK293/CRE-Luc cell line stably expressing the GLP-1 Receptor, 30 min at 37° C.
Item-by-item account of EC50
recorded endpoint: EC50 (nM)

molecule	recorded number
CC1(c2ccc(Cl)cc2F)Oc2cccc(C3CCN(Cc4nc5cc(NC(=O)c6cccnc6)ccc5n4C[C@@H]4CCO4)CC3)c2O1 (stereo partly shown) [Compound 235a]	0.062
O=C(Nc1ccc2c(c1)nc(CN1CCC(c3cccc(OCc4ccc(Cl)cc4F)n3)CC1)n2C[C@@H]1CCO1)C1CCCOC1 (stereo partly shown) [Compound 154a]	0.13
N#Cc1ccc(COc2cc(C3=CCN(Cc4nc5cc(-c6nnc(C(F)(F)F)[nH]6)ncc5n4C[C@@H]4CCO4)CC3)ccc2F)c(F)c1 [Compound 300a]	0.1
CNC(=O)Nc1ccc2c(c1)nc(CN1CCC(c3cccc(OCc4ccc(Cl)cc4F)n3)CC1)n2C[C@@H]1CCO1 [Compound 145a]	0.16

----------
Item-by-item account of pEC50
system tested: GLP-1 Receptor (Homo sapiens)
method summary: GLP-1R agonist cAMP stimulation assay (HEK293/GLP1R/CRE-LUC cells, cAMP dynamic 2 Kit)
measurement conditions: HEK293/CRE-Luc cell line stably expressing the GLP-1 Receptor, 30 min at 37° C.
pEC50: −log10 of the molar value.

compound	pEC50
O=C(CC(F)(F)F)Nc1ccc2c(c1)nc(CN1CCC(c3cccc(OCc4ccc(Cl)cc4F)n3)CC1)n2C[C@@H]1CCO1 [Compound 150a]	9.21
CC1(c2ccc(Cl)cc2F)Oc2cccc(C3CCN(Cc4nc5cc(-c6nnc(C(F)(F)F)[nH]6)cnc5n4C[C@H]4CCOC4)CC3)c2O1 (stereo partly drawn) [Compound 401a]	9.22
Cc1nnc(-c2ccc3c(c2)nc(CN2CCC(c4cccc5c4OC(C)(c4ccc(Cl)cc4F)O5)CC2)n3C[C@@H]2CCO2)[nH]1 (stereo partly drawn) [Compound 243a]	10.28
C[C@]1(c2ccc(Cl)cc2F)Oc2cccc(C3CCN(Cc4nc5cc(-c6noc(=O)[nH]6)ncc5n4CC4(C#N)CC4)CC3)c2O1 [Compound 346a]	10.82
CO[C@@H](C)Cn1c(CN2CCC(c3cccc4c3OC(C)(c3ccc(Cl)cn3)O4)CC2)nc2cc(-c3nnc(C(F)(F)F)[nH]3)ncc21 (stereo partly drawn) [Compound 445a]	8.70
Cc1nnc(-c2ccc3c(c2)nc(CN2CCC(c4cccc5c4O[C@@](C)(c4ccc(Cl)cc4F)O5)CC2)n3C[C@@H]2CCO2)[nH]1 [Compound 406a]	10.74
Cc1ccc(COc2cccc(C3CCN(Cc4nc5cc(-c6nnc(C(F)(F)F)[nH]6)ncc5n4C[C@@H]4CCO4)CC3)n2)c(F)c1 [Compound 496a]	10.77
N#Cc1ccc(COc2nccc(C3CCN(Cc4nc5cc(-c6nnc(C(F)(F)F)[nH]6)ncc5n4C[C@@H]4CCO4)CC3)n2)c(F)c1 [Compound 507a]	10.17
C[C@]1(c2ccc(Cl)cc2F)Oc2cccc(C3CCN(Cc4nc5cc(-c6nnc(C(F)(F)F)[nH]6)ccc5n4CC4(C#N)CC4)CC3)c2O1 [Compound 412a]	10.48

----------
system tested: GLP-1 Receptor (Homo sapiens, UniProt P43220)
Sequence (P43220 24-463, species assumed): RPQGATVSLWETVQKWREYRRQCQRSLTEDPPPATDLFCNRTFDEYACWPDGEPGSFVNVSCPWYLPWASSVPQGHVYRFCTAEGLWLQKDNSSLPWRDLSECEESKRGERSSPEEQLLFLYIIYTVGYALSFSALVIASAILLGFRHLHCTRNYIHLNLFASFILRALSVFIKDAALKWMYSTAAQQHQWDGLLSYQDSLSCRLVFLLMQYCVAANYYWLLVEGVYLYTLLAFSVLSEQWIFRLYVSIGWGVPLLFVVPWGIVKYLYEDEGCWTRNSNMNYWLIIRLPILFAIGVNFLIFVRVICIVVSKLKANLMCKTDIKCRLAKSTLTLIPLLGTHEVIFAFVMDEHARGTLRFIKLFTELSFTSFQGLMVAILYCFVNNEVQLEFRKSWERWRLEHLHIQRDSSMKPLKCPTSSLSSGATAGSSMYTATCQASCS
method summary: GLP-1R agonist cAMP stimulation assay (HEK293/GLP1R/CRE-LUC cells, cAMP dynamic 2 Kit)
measurement conditions: HEK293/CRE-Luc cell line stably expressing the GLP-1 Receptor, 30 min at 37° C.
pEC50: −log10 of the molar value.
recorded endpoint: pEC50

compound	system tested	recorded number
CC1(c2ccc(Cl)cc2F)Oc2cccc(C3CCN(Cc4nc5cc(-c6nnc(C(F)(F)F)[nH]6)cnc5n4CC4(C#N)CC4)CC3)c2O1 (centres unmarked) [Compound 254a]	GLP-1 Receptor (Homo sapiens, UniProt P43220)	10.16
FC(F)(F)c1nnc(-c2cc3nc(CN4CCC(c5cccc6c5OC[C@@H](c5ccc(Cl)cc5)O6)CC4)n(C[C@@H]4CCO4)c3cn2)[nH]1 [Compound 423a]	GLP-1 Receptor (Homo sapiens, UniProt P43220)	9.89
CC1(c2ccc(Cl)nc2)Oc2cccc(C3CCN(Cc4nc5cc(-c6nnc(C(F)(F)F)[nH]6)ncc5n4C[C@@H]4CCO4)CC3)c2O1 (some centres unmarked) [Compound 467a]	GLP-1 Receptor (Homo sapiens, UniProt P43220)	10.12
O=c1[nH]c(-c2cnc3c(c2)nc(CN2CC=C(c4cccc(OCc5ccc(Cl)cc5F)n4)CC2)n3C[C@@H]2CCO2)no1 [Compound 324a]	GLP-1 Receptor (Homo sapiens, UniProt P43220)	9.96
Cc1nc(-c2nnc(C(F)(F)F)[nH]2)cc2nc(CN3CCC(c4cccc5c4O[C@@](C)(c4ccc(Cl)cc4F)O5)CC3)n(C[C@@H]3CCO3)c12 [Compound 302a]	GLP-1 Receptor (Homo sapiens, UniProt P43220)	9.77

Value source: patent US20230391760A1
